- target system: Nonstructural protein 3 (Zika virus, UniProt A0A024AXB9)
- Sequence (A0A024AXB9 whole entry): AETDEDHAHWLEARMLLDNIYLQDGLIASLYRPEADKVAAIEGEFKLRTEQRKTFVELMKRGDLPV
- test: Functional biochemical assay to identify treatments for viral infectious disease that targets Zika NS2B-NS3 protease. Utilizing a direct enzyme activity measurement method, reading the fluorescence intensity is used to characterize the relative potency of inhibitors as IC50.
- Parameters: species or system PRVABC59
Quick list: IC50 per entry.

Study these solved cases before continuing.
{"cpd smiles": "O=c1ccccn1-c1ncc(Br)cn1", "measured quantity": "IC50", "data value": "> 99.5 µM"}
{"cpd smiles": "NCc1cccc(NC(=O)[C@@H](NC(=O)OCc2ccccc2)c2cccc(Br)c2)c1", "measured quantity": "IC50", "data value": "64.4 µM"}
{"cpd smiles": "Cc1cnn(-c2cccc(-c3cccc(C4(CN)CC4)c3)c2)c1", "measured quantity": "IC50", "data value": "> 99.5 µM"}
{"cpd smiles": "NCCc1ccc(NC(=O)c2cc(Cl)cc3[nH]ncc23)cc1", "measured quantity": "IC50", "data value": "3.78 µM"}
{"cpd smiles": "FC1(c2cccnc2)CN(Cc2c[nH]c3ccccc23)C1", "measured quantity": "IC50", "data value": "> 99.5 µM"}

Now turn to the next compound.
Fill in: IC50 of CCOc1cccc(-c2ccc(S(=O)(=O)Nc3cc(F)c(Cl)cc3C(=O)O)cc2)c1 is ___ 8.18 µM
